// provenance: patent US20090005435A1

system: fatty acid oxidation; experiment: β-Oxidation assay, isolation of acid soluble products; assay type: cell-based
Give measured FAO SC 150 for each item. Keep answers brief.
Answers are plain numbers, in µg/mL.

>  <COMPOUND>
C=CCC1(CC=C)C(=O)SC(C)(CCCCCCCCCC)C1=O (stereo not shown) [Compound 15]

>  <SYSTEM TESTED>
fatty acid oxidation

>  <VALUE REPORTED>
16.0

$$$$

Let us move to another entry and its FAO SC 150.
Input: Lookup: FAO SC 150 / fatty acid oxidation / CCCCCCCCCCC1(C)SC(=O)C(C)(C)C1=O (stereo not shown) [Compound 12]
Output: 1.4
